biological target: HDAC9 enzyme (Homo sapiens); construct: transducing full length HDAC9 gene into Sf-9 insect cells; made in house; host or cells: Sf-9 insect cells; experiment: HDAC9 Enzyme Inhibitory Assay (HDAC-Glo class IIa); type: biochemical; conditions: 1 μM test compound; wells without enzyme = 100% inhibition; read-out: HDAC9 inhibitory rate (%) (1 μM)
Sequence (Q9UKV0 whole entry, species assumed): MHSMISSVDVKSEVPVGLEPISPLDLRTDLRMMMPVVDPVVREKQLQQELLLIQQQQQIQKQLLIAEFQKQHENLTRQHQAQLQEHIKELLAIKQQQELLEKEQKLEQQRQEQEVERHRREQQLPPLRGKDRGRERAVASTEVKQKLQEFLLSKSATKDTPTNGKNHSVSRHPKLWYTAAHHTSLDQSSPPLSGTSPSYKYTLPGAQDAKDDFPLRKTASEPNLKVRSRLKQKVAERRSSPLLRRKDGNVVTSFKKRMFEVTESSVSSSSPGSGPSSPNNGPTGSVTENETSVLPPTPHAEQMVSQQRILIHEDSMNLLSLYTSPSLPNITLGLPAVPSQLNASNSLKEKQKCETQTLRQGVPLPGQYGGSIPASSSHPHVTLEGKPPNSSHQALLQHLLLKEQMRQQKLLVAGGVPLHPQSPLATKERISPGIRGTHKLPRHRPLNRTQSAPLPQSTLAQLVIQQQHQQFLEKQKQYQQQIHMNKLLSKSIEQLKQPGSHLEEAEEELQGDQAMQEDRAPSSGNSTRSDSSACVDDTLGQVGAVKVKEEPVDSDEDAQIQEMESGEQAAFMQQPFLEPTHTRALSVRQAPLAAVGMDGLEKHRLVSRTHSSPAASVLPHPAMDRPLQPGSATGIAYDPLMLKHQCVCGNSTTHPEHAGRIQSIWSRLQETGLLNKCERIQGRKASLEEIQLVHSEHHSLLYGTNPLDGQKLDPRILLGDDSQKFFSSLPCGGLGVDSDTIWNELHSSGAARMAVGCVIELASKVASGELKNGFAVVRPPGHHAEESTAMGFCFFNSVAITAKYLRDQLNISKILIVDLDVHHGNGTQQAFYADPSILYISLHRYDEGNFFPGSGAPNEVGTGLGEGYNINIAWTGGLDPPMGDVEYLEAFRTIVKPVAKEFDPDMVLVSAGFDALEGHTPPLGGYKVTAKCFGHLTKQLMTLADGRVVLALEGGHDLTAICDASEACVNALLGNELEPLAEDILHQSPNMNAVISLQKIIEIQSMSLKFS
outcome.measure: inhibition at 1 µM (%)

# annotated cases, reported inhibition at 1 µM shown
>>> numeric_result("CN(C)C(=O)c1ccccc1N1Cc2ccc(-c3noc(C(F)(F)F)n3)cc2C1=O")
45
>>> numeric_result("O=C(Cc1ccc(F)cc1)N1CCC(N2Cc3ncc(-c4noc(C(F)(F)F)n4)cc3C2=O)CC1")
90

a = O=C1c2ccc(-c3noc(C(F)(F)F)n3)cc2CN1[C@@H]1CNCC[C@H]1c1ccccc1 (relative stereo)
b = CC1CC1C(=O)N[C@@H]1CCCC[C@H]1N1Cc2ccc(-c3noc(C(F)(F)F)n3)cc2C1=O (stereo partly shown)
Task item: Identify the entry with the larger inhibition at 1 µM. Options: a and b Reply briefly: the label of your chosen item.
Reply: a
(a: 80%, b: 52%)
